System: LoVo-Dox
measurementDescription: SRB colorimetric assay of cell growth and viability, LoVo-Dox
Format: cell-based, human
measurementParameters: 48 hours exposure; read-out: LC50 LOVO-DOX
Description: The finality of this assay is to interrupt the growth of a “in vitro” tumor cell culture by means a continued exhibition of the cells to the sample to be testing. A colorimetric type of assay, using sulforhodamine B (SRB) reaction has been adapted for a quantitative measurement of cell growth and viability [following the technique described by Philip Skehan, et al. (1990), New colorimetric cytotoxicity assay for anticancer drug screening, J. Natl. Cancer Inst., 82:1107-1112]. […]
Where a SMILES comes first, the peptide text is derived from it. Bridges are numbered along the chain shown (N, C = ends). [ ]: non-standard residue; d: D form. The star is where a group is joined. d(aIle) = CC[C@H](C)[C@@H](N)C(=O)O; d(aThr) = C[C@@H](O)[C@@H](N)C(=O)O; Hexanoyl(5-Me) = CC(C)CCCC(=O)*; Orn = NCCC[C@H](N)C(=O)O; Dhb = C/C=C(\N)C(=O)O
recordedMetric: CC50 (µM)

• C/C=C1\NC(=O)[C@H](Cc2ccccc2)NC(=O)[C@@H](C(C)C)NC(=O)[C@@H]([C@@H](C)CC)NC(=O)[C@H](NC(=O)[C@H](NC(=O)[C@H](CCCN)NC(=O)[C@H]2CCCN2C(=O)[C@H](NC(=O)[C@@H](NC(=O)CNC(=O)CCCC(C)C)C(C)C)C(C)C)[C@@H](C)CC)[C@@H](C)OC(=O)[C@H](C(C)C)NC1=O [Compound 53, [Gly^12, noD-Val^13]-KF] ({Hexanoyl(5-Me)}-GV[dV][dP][Orn][d(aIle)][d(aThr)][d(aIle)][dV]F[Dhb]V; ester 7-C) = 7.49
